test: NCI Yeast Anticancer Drug Screen. Data for the mlh1 rad18 strain (AID 175); details: S. cerevisiae mlh1 rad18 strain growth inhibition; at 50.0 µM; stronger effect = higher value
About 79,000 compounds went through this panel and 15% of them were active in at least one assay; those are over-represented in the sample as a whole.
readout_type: growth inhibition (%)

1) CC(=O)OCC1OC(OC2=C(CC=C(C)C)C(=O)c3ccccc3C2=O)C(OC(C)=O)C(OC(C)=O)C1OC(C)=O (configuration not stated) ... -6.6
2) COc1ccc(-c2cc(-c3cc(-c4ccc(OC)cc4)nc(N)n3)nc(N)n2)cc1 ... 9.8
3) Nc1ccc(NC(=O)c2cccc(N)c2)cc1 ... 22
4) C=CCOC(=O)C(=O)OCC=C ... 14.8
5) CCNCCCCNCCCCNCCCCNCCCCNCC ... 6.7
6) Cc1ccc(C(=O)NC2c3ccccc3Oc3ccccc32)cc1 ... -5
7) COc1cccc(O)c1O ... 19.4
8) O=C(CS)Nc1ccc2ccccc2c1 ... -1.15
9) CCCC(C)OCC(=O)O (configuration not stated) ... -7.1
10) O=[N+]([O-])c1cccc(N=Nc2ccc(O)cc2O)c1 ... 20.6
11) COc1ccc2c(c1)CCc1c-2n[nH]c1-c1[nH]nc2c1CCc1cc(OC)ccc1-2 ... -5
12) COc1ccc(NC(=O)CCl)cc1 ... 23.6
